# system: UniProtKB O75907
# Sequence (O75907 whole entry): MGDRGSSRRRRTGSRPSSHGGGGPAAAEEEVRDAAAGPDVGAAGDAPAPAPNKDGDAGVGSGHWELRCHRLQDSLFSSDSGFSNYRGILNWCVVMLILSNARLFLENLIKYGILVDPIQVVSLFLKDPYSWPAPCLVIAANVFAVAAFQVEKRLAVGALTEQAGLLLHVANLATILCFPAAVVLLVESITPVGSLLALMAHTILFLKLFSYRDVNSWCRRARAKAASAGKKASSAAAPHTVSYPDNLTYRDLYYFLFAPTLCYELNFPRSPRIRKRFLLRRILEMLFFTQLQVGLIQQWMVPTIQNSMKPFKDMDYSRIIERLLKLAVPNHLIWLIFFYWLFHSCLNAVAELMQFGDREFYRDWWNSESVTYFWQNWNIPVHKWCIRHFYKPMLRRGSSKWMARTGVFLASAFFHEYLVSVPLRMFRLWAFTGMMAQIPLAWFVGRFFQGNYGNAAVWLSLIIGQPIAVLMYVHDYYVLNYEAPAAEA
Catalogue of compounds with associated IC50

| compound | IC50 |
| --- | --- |
| Cc1ccccc1NC(=O)c1ccc(-c2ccc(NC(=O)c3sc(CN(C)c4ccccc4)nc3C(F)(F)F)nc2)cc1 | 0.101 to 0.5 µM |
| CC1CCCN(c2nc(C(F)(F)F)c(C(=O)Nc3ccc(-c4ccc(C(=O)NCCC(=O)O)cc4)cc3)o2)C1 (centres unmarked) | 0.101 to 0.5 µM |
| CN(CC1(c2ccccc2)CC1)c1nc(C(F)(F)F)c(C(=O)Nc2ccc(N3CCN(C(=O)Nc4ccccc4F)CC3)nc2)o1 | 0.011 to 0.1 µM |
| O=C(Nc1ccc(N2CCN(C(=O)Nc3ccccc3F)CC2)nc1)c1sc(COc2ccccc2)nc1C(F)(F)F | 0.101 to 0.5 µM |
| Cc1ccccc1NC(=O)c1ccc(-c2ccc(NC(=O)c3oc(N4CCCC(C)C4)nc3C(F)(F)F)cn2)cc1 (centres unmarked) | 0.011 to 0.1 µM |
| Cc1cc(N2CCN(C(=O)Nc3ccccc3F)CC2)ncc1NC(=O)c1oc(N2CCCC(C)C2)nc1C(F)(F)F (centres unmarked) | 0.101 to 0.5 µM |
| O=C(Nc1ccc(N2CCN(C(=O)Nc3ccccc3F)CC2)nc1)c1sc(CSc2ccccc2)nc1C(F)(F)F | 0.011 to 0.1 µM |
| CC1CCCN(c2nc(C(F)(F)F)c(C(=O)Nc3ccc(-c4ccc(C(=O)N5CCC(C(=O)O)CC5)cn4)cc3)o2)C1 (centres unmarked) | 0.101 to 0.5 µM |
| CC1CCCN(c2nc(C(F)(F)F)c(C(=O)Nc3ccc(N4CCN(C(=O)Nc5ccccc5F)CC4)cn3)o2)C1 (centres unmarked) | 0.011 to 0.1 µM |
| O=C(CN1CCN(c2ccc(NC(=O)c3oc(N4CCC(c5ccccc5)CC4)nc3C(F)(F)F)cn2)CC1)c1ccccc1F | 0.101 to 0.5 µM |
| O=C(Nc1ccc(N2CCN(C(=O)Nc3ccccc3F)CC2)nc1)c1oc(N2CC[C@H](c3ccccc3)C2)nc1C(F)(F)F | 0.011 to 0.1 µM |
| O=C(Nc1ccc(N2CCN(C(=O)Nc3ccccc3F)CC2)nc1)c1oc(N2CCC(O)(c3ccccc3)CC2)nc1C(F)(F)F | 0.101 to 0.5 µM |
| CN(Cc1nc(C(F)(F)F)c(C(=O)Nc2ccc(N3CCN(C(=O)Nc4ccccc4F)CC3)nc2)s1)c1ccccc1 | 0.101 to 0.5 µM |
| O=C(Nc1ccc(N2CCN(C(=O)Nc3ccccc3F)CC2)nc1)c1oc(N2CCCCCC2)nc1C(F)(F)F | 0.011 to 0.1 µM |
